These entries and their values trace back to patent US20260098102A1.

- Assayed system: T1, human SIRPA_V2 protein (human, UniProt P78324 31-504)
- T1 construct: Expressed on 293α cells from pcDNA3.2 V5-DEST or pFLAG V5-DEST (FLAG-tagged) vectors; also called human SIRPA Variant 2; ECD variant (full-length, amino acids 1 to 504)
- T1 sequence (P78324 other isoform, or with tags, fused parts or gaps limits assumed): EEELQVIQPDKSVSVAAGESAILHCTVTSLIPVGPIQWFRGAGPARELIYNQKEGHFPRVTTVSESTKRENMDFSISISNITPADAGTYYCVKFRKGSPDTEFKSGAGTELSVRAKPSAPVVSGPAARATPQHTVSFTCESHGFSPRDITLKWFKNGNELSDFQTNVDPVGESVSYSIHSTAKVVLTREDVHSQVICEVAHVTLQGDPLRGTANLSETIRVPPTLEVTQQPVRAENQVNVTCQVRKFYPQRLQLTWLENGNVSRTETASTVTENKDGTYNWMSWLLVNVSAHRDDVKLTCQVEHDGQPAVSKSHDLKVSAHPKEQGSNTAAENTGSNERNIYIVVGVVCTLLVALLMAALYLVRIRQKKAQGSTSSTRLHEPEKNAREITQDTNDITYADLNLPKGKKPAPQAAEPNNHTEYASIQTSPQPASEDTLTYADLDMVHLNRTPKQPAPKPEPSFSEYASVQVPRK
- Measurement notes: blocking cell-based ELISA: peroxidase-labeled CD47-Fc (1 µg/mL) on 293α cells expressing SIRPA_V2; y axis = CD47-Fc signal relative to no antibody (100)
Observed property: IC50 (read off the curve)

IN: Write down IC50 (read off the curve) measured for item human chimeric anti-SIRPA antibody cD13 (antibody, human IgG4 S228P, kappa, F234A L235A, V domains shown, Human IgG4proFALA heavy chain, human kappa light chain; also called cD13 (IgG4pf); human chimeric antibody D13) VH: EVQLVESGGGLVQPGRSLKLSCLASGFTFSDYGMIWVRQAPGKGLEWVASISSSSSYIYYADTVKGRFTISRENAKNTLFLHMTSLRSEDTALYYCARRYYGFNYPFDYWGQGVMVTVSS VL: DTVLTQSPALAVSLGQRVTISCGASKSVRTYMHWYQQKSGQQPKLLIYSASNLEAGVPSRFSGSGSGTDFTLTIDPVEADDIANYYCQQSNEPPYTFGAGTKLELKR
OUT: ~0.8 µg/mL
